Provenance of the data: ChEMBL document CHEMBL1129267

# System: Mus musculus
# ASSAY_SUMMARY: Compound was tested for the inhibition of locomotor activity (LMA)by administering Intraperitoneally in mouse.
# Assay type: functional
# EXPERIMENTAL_SETUP: ip
MEASURED_METRIC: ED50 (mg/kg)
Quick reminder: number only, in mg/kg, skip the unit.

Q) # ED50 lookup, item "C(#Cc1ccccc1)CCN1CC=C(c2ccccc2)CC1"
A) 9.5

Q) Would you kindly share the measured ED50 for "C(#Cc1ccc2occc2c1)CCN1CC=C(c2ccccc2)CC1" ?
A) 2.5

Q) // ED50 lookup, key: "C(#Cc1ccc2[nH]ccc2c1)CCN1CC=C(c2ccccc2)CC1"
A) 1.2

Q) Bench note: what ED50 did "Oc1ccc2[nH]cc(CCCCN3CC=C(c4ccccc4)CC3)c2c1" show?
A) 0.2

Q) Please give the measured ED50 for this molecule: "Nc1ccc(C#CCCN2CC=C(c3ccccc3)CC2)cn1"
A) 0.06

Q) Which ED50 is listed for "COc1ccc(C#CCCN2CC=C(c3ccccc3)CC2)cc1" ?
A) 3.3
